Test system: 1X-Ab
Protocol Details: Competitive antigen ELISA, cross-reactivity of 1X-Ab
Format: binding, rabbit
Cond: 0 = absence of inhibition or inhibition no higher than 40% at highest concentration tested (5 × 10^−3 M)
Recorded % Cross-Reaction 1X-Ab for the following molecules
Return type: number; implicit unit %.

Recorded % Cross-Reaction 1X-Ab, per entry:
query: Check the records and state % Cross-Reaction 1X-Ab for CC(=O)Nc1c(N)n(C)c(=O)[nH]c1=O
result: 0

query: Give me measured % Cross-Reaction 1X-Ab, please, for this molecule: Cn1c(=O)[nH]c2nc[nH]c2c1=O
result: 100

query: Give a short answer stating reported % Cross-Reaction 1X-Ab for CC(=O)Nc1c(N)n(C)c(=O)n(C)c1=O .
result: 0

query: Consider the molecule Cn1c(=O)[nH]c2[nH]c(=O)n(C)c2c1=O and give its recorded % Cross-Reaction 1X-Ab.
result: 0

query: Provide only the value of recorded % Cross-Reaction 1X-Ab for O=c1[nH]c(=O)c2[nH]c(=O)[nH]c2[nH]1
result: 0

query: Indicate its recorded % Cross-Reaction 1X-Ab; the molecule in question is Nc1nc2nc[nH]c2c(=O)[nH]1
result: 0

query: Give the value of % Cross-Reaction 1X-Ab reported for the following: Cn1c(=O)c2[nH]cnc2n(C)c1=O
result: 0.2

query: Specify reported % Cross-Reaction 1X-Ab for the molecule shown: O=c1[nH]c(=O)c2[nH]cnc2[nH]1
result: 0

Next:
query: Indicate the recorded % Cross-Reaction 1X-Ab value for this molecule: O=c1[nH]cnc2nc[nH]c12
result: 0

---

Overview of reported % Cross-Reaction 1X-Ab across a group of molecules:
Test system: 1X-Ab
Protocol Details: Competitive antigen ELISA, cross-reactivity of 1X-Ab
Type: binding, rabbit
Cond: 0 = absence of inhibition or inhibition no higher than 40% at highest concentration tested (5 × 10^−3 M)
Give a bare numeral; the unit % is implied.

query: Tell me measured % Cross-Reaction 1X-Ab for Cn1cnc2c1c(=O)[nH]c(=O)n2C please.
result: 0

Others:
query: Supply measured % Cross-Reaction 1X-Ab of Cn1cnc2[nH]c(=O)[nH]c(=O)c21 in your reply.
result: 0

query: Supply reported % Cross-Reaction 1X-Ab belonging to this molecule: Cn1c(=O)[nH]c2[nH]c(=O)[nH]c2c1=O
result: 11

---

Measured % Cross-Reaction 1X-Ab, listed per entry for reference.
Tested on: 1X-Ab
Protocol Details: Competitive antigen ELISA, cross-reactivity of 1X-Ab
Format: binding, rabbit
Cond: 0 = absence of inhibition or inhibition no higher than 40% at highest concentration tested (5 × 10^−3 M)
Enter your answer as a number in %; do not include the unit.

Reference set (4 entries):
query: Provide the reported % Cross-Reaction 1X-Ab (system: 1X-Ab) for Cc1nc2[nH]c(=O)[nH]c(=O)c2[nH]1
result: 0

query: Determine reported % Cross-Reaction 1X-Ab for O=c1cc[nH]c(=O)[nH]1 ; test system: 1X-Ab.
result: 0

query: Give % Cross-Reaction 1X-Ab only, for Cn1c(=O)[nH]c2ncn(C)c2c1=O , using 1X-Ab data.
result: 0.5

query: Name the value of % Cross-Reaction 1X-Ab reported for Cn1c(=O)[nH]c(=O)c2[nH]cnc21 when tested on 1X-Ab.
result: 0

---
query: Look up 1X-Ab data: % Cross-Reaction 1X-Ab of Cn1c(=O)c2c(ncn2C)n(C)c1=O , then report it.
result: 0

query: Give 1X-Ab % Cross-Reaction 1X-Ab for the following compound: CC(=O)Nc1c(N)[nH]c(=O)[nH]c1=O
result: 0

Data origin, for the record: patent US20030124636A1
